Target: GlcNAc(b1-2)Man(a1-3)[GlcNAc(b1-4)][GlcNAc(b1-2)Man(a1-6)]Man(b1-4)GlcNAc(b1-4)GlcNAc
Experiment: glycan array binding signal (z-score within array); higher = stronger binding
Conditions: glycan notation: IUPAC condensed, linker removed
The full list was thinned out, with the strongest signals kept by preference.
measurement.name: glycan array binding signal (z-score)
Answers are plain numbers.

Observe how each entry below is paired with its result.
- binder: "LSectin (Mus musculus), Q8BNX1 (protein) MNTGEYNKLGSAIEEVSRGQLGRWECYKQRLFFLVLALLVATVLWALILSTLLSSASSKLRVLLSHQDLLRTNASEQKMTLSSLKDDIGACRNCCSVTKAQLQTTLAEFKDIQAKLMEQESILKELQERVTQDLAKASRDRENIRSELFQALEAVKRQNSSCEQCPPSWLPFQGSCYYFSETQATWDTAQSYCGGQGAHLVIVRGLNEQGFLSQHTRGRGYWLGLRAVRHLNKIQGYRWVDGASLNFSHWNSGEPNDSRGHEDCIMMLHSGLWNDAPCTNERDGWICEKRSSCY"
  glycan array binding signal (z-score): 7.84
- binder: "Gal 4 (Canis lupus) (protein) MAYVPAPGYQPTYNPTLPYNKPIPGGLSVGMSVYIQGITSEHMRRFCVNFVAGAHPGSDIAFHFNPRFDGWDKVVFNSHLGGKWGSEEKKRSMPFRKGTHFELVFMVLAEHYKVVVNGNPFYEFGHRLPLQLVTHLQVEGDVELQSINFIGGTQPLGQGPGHTQQQPSSLPTMEGPPVFNPPVPFRKRLQGGLTVRRTVIIKGFVPFTSKSFVINFMVESSGDLALHINPRLTEGLVVRNSCLNGSWGSEDRKLSYNPFIPGQFFDLSIRCGMDRFKVYANGQHLFDFSHRLLALQNVDMLEINGDVTLSYIQV"
  glycan array binding signal (z-score): -0.148
- binder: "LlpA (Arthrobacter sp) (protein) MGSSHHHHHHSSGLVPRGSHMTLHPETALRPGAAATSPNSRYRLLYQTDGNLVLYGPDGPLWDSGTNGHGAGACIMQADGNLVLYGPNDEYVWDTETDNNPGSRLVIQDDGNAVIYRPDGSPLWATETCQPPGSADSHVLQSGSTLTPTHGIRSANGLYGLLYQTDGNLVFYGPDGPLWDSGTNGRGAGACIMQPDGNLVLYGPHDEYVWDTETDNNPGSRLVIQDDGNAVIYRPDGNPTWVTGTH"
  glycan array binding signal (z-score): -0.798

Please look at the items below and tell me glycan array binding signal (z-score) for each one, in order.
1. DC-ASGPR Long (Homo sapiens) (protein) MTRTYENFQYLENKVKVQGFKNGPLPLQSLLQRLRSGPCHLLLSLGLGLLLLVIICVVGFQNSKFQRDLVTLRTDFSNFTSNTVAEIQALTSQGSSLEETIASLKAEVEGFKQERQAGVSELQEHTTQKAHLGHCPHCPSVCVPVHSEMLLRVQQLVQDLKKLTCQVATLNNNASTEGTCCPVNWVEHQDSCYWFSHSGMSWAEAEKYCQLKNAHLVVINSREEQNFVQKYLGSAYTWMGLSDPEGAWKWVDGTDYATGFQNWKPGQPDDWQGHGLGGGEDCAHFHPDGGWNDDVCQRPYHWVCEAGLGQTSQESH
2. Gal 2 (Homo sapiens), P05162 (protein) MTGELEVKNMDMKPGSTLKITGSIADGTDGFVINLGQGTDKLNLHFNPRFSESTIVCNSLDGSNWGQEQREDHLCFSPGSEVKFTVTFESDKFKVKLPDGHELTFPNRLGHSHLSYLSVRGGFNMSSFKLKE
3. MUB70 (Lactobacillus reuteri) (protein) CVHVQYIDGETDQMLRQDDLDGYTDETIPYSTAEGIKKFEGDGYELFKDNFPAGEKFDNDDTNDQFYTVIF
4. pTFF2 (Sus scrofa), P01359 (protein) KPAACRCSRQDPKNRVNCGFPGITSDQCFTSGCCFDSQVPGVPWCFKPLPAQESEECVMEVSARKNCGYPGISPEDCAARNCCFSDTIPEVPWCFFPMSVEACHY
5. NKR-PIC (Mus musculus) (protein) GTGQKPSREKCCVFIQENLNKTTDCSVNLECPQDWLLHRDKCFHVSQVSNTWEEGQADCGRKGATLLLIQDQEELRFLLDSIKEKYNSFWIGLRFTLPDMNWKWINGTTFNSDVLKITGVTENGSCASILGDKVTPESCASDNRWICQKELNHETPSNDSGT
6. AAL (Agrocybe aegerita), Q6WY08 (protein) MQGVNIYNISAGTSVDLAAPVTTGDIVTFFSSALNLNAGAGNPNNTTLNLFAENGAYLLHIAFRLQENVIIFNSRQPDGPWLVEQRVSDVANQFAGIDGKAMVTVFDHGDKYQVVINEKTVIQYTKQISGLTLSLSYNATEETSIFSTVVEAVTYTGLALEHHHHHH
7. rCnSL-A (Clitocybe nebularis) (protein) VNPNLPGPNDVFVGFRGTNNIVGAIYEKDGIKDTPLNNGADAEMGPGSYITDGLFTARIFASGSAGNNPGTTATVCKIYASGVQWRGAPKGYIPVAYFGNGPTAEQRRQTYLRTLGLPGTAIRFGNLNTNPGQGPTAPRQMVVPPGPLRSLLKASCFPAADTRLPQTLHYFEKRVDWNIITAADSQTWGH
8. EEA (Euonymus europaeus) (protein) MASTIIATGPTYRVYCRAAPNYNMIVGKGVAFLAPIDETNELQYWYKDDTYSYIKDEAGLPAFSLVNKATGLTLKHSNHHPVPVKLVTYNPNVVDESVLWSQADDRGDGYSAIRSLTNPASHLEAAPLNDWSYNGAIIMGGVWIDAYNQQWKIEPHTG

RESULT:
-0.323
-0.084
0.036
0.002
3.99
-0.151
-0.223
-0.242
